B1: ZNF263 (parent)
chain: QRTHTGEKPYKCPECGEIFAHSSN

- Variants of: B1
- assayNotes: protein stability index of a GFP-peptide fusion (GPS, HEK-293T) (PSI 1-6); higher = more stable;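 also: lentivirally expressed fusions sorted by FACS into six bins by GFP to DsRed ratio, PSI derived from sequencing read proportions per bin multiplied by bin number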
- settings: c terminus: a fixed tail appended

>  <recordSequence>
QRTHTGEKPYKCPECGVIFAHSSN [E17V]

>  <protein stability index>
2.6

$$$$
>  <recordSequence>
QRTHTGEKPYKCPICGEIFAHSSN [E14I]

>  <protein stability index>
3.25

$$$$
>  <recordSequence>
QRTHTGEKPYKCPECGEITAHSSN [F19T]

>  <protein stability index>
4.1

$$$$
>  <recordSequence>
QRTHTGEKPYKCPECGEIKAHSSN [F19K]

>  <protein stability index>
4.08

$$$$
>  <recordSequence>
QRRHTGEKPYKCPECGEIFAHSSN [T3R]

>  <protein stability index>
2.85

$$$$
>  <recordSequence>
QRTHTGEKPYKCPECGEAFAHSSN [I18A]

>  <protein stability index>
3.48

$$$$
>  <recordSequence>
QRTHTGEKPYKCPECGAIFAHSSN [E17A]

>  <protein stability index>
4.67

$$$$
>  <recordSequence>
QRTHTGEKPYKCPECGELFAHSSN [I18L]

>  <protein stability index>
3.18

$$$$
>  <recordSequence>
QRTHTGEKPYKCPECGEIFAHSSL [N24L]

>  <protein stability index>
2.95

$$$$
>  <recordSequence>
QRTHTGEKPYKCPECGEIFAHSSK [N24K]

>  <protein stability index>
3.99

$$$$
>  <recordSequence>
SRTHTGEKPYKCPECGEIFAHSSN [Q1S]

>  <protein stability index>
3.14

$$$$
>  <recordSequence>
QRTHTGEKPYKCDECGEIFAHSSN [P13D]

>  <protein stability index>
4.34

$$$$
>  <recordSequence>
QRTHTGEKKYKCPECGEIFAHSSN [P9K]

>  <protein stability index>
3.62

$$$$
>  <recordSequence>
QRTHTGEKPYKCPECGEGFAHSSN [I18G]

>  <protein stability index>
4.05

$$$$
>  <recordSequence>
QRTHTGEKPYKCPECGEIFAHSCN [S23C]

>  <protein stability index>
5.55

$$$$
>  <recordSequence>
QRTHTGEKPYKCPTCGEIFAHSSN [E14T]

>  <protein stability index>
3.12

$$$$
>  <recordSequence>
QRTHTGEKPYLCPECGEIFAHSSN [K11L]

>  <protein stability index>
3.39

$$$$
>  <recordSequence>
QRTHTTEKPYKCPECGEIFAHSSN [G6T]

>  <protein stability index>
3.34

$$$$
>  <recordSequence>
QRTHTGEKPYKCPEQGEIFAHSSN [C15Q]

>  <protein stability index>
4.48

$$$$
>  <recordSequence>
QRTHTGEKPYKCPECGEIFAHFSN [S22F]

>  <protein stability index>
2.8

$$$$
>  <recordSequence>
QRTHTGEKPYKCPECGEIFAHSDN [S23D]

>  <protein stability index>
3.5

$$$$
>  <recordSequence>
QRTHTGEPPYKCPECGEIFAHSSN [K8P]

>  <protein stability index>
3.4

$$$$
>  <recordSequence>
QRMHTGEKPYKCPECGEIFAHSSN [T3M]

>  <protein stability index>
3.43

$$$$
>  <recordSequence>
QETHTGEKPYKCPECGEIFAHSSN [R2E]

>  <protein stability index>
3.78

$$$$
>  <recordSequence>
QRTHTGEKPYKCPECMEIFAHSSN [G16M]

>  <protein stability index>
3.45

$$$$
>  <recordSequence>
QRTHTGEKPYKCPECGEIFAFSSN [H21F]

>  <protein stability index>
2.74

$$$$
>  <recordSequence>
QRTHTGAKPYKCPECGEIFAHSSN [E7A]

>  <protein stability index>
2.65

$$$$
>  <recordSequence>
QRTHTGEKPYKCPECGEIPAHSSN [F19P]

>  <protein stability index>
3.75

$$$$
>  <recordSequence>
QRTHTGEKPMKCPECGEIFAHSSN [Y10M]

>  <protein stability index>
3.66

$$$$
>  <recordSequence>
QRTHTGEKPYKCPECGEICAHSSN [F19C]

>  <protein stability index>
4.9

$$$$
>  <recordSequence>
QRTHTGEKPGKCPECGEIFAHSSN [Y10G]

>  <protein stability index>
3.48

$$$$
>  <recordSequence>
QKTHTGEKPYKCPECGEIFAHSSN [R2K]

>  <protein stability index>
2.92

$$$$
>  <recordSequence>
QRTHTGEKPYKCPECGEIFAHSNN [S23N]

>  <protein stability index>
3.34

$$$$
>  <recordSequence>
QRTHTGEKPYKCPECGEIDAHSSN [F19D]

>  <protein stability index>
4.87

$$$$
>  <recordSequence>
QRTHTGEKPYKCPECGEIFAHISN [S22I]

>  <protein stability index>
2.52

$$$$
>  <recordSequence>
QRTHTGEKPYKCPEKGEIFAHSSN [C15K]

>  <protein stability index>
4.75

$$$$
>  <recordSequence>
QRTHTGEKPYKCPDCGEIFAHSSN [E14D]

>  <protein stability index>
3.1

$$$$
>  <recordSequence>
QRTHTGEKPYICPECGEIFAHSSN [K11I]

>  <protein stability index>
3.1

$$$$
>  <recordSequence>
QRTHTGEKTYKCPECGEIFAHSSN [P9T]

>  <protein stability index>
3.43

$$$$
>  <recordSequence>
QRTHTGEKPYKCPECGETFAHSSN [I18T]

>  <protein stability index>
3.9

$$$$
>  <recordSequence>
QRTSTGEKPYKCPECGEIFAHSSN [H4S]

>  <protein stability index>
3.7

$$$$
>  <recordSequence>
QRTHTGEKPSKCPECGEIFAHSSN [Y10S]

>  <protein stability index>
3.98

$$$$
>  <recordSequence>
QATHTGEKPYKCPECGEIFAHSSN [R2A]

>  <protein stability index>
3.34

$$$$
>  <recordSequence>
QRTHTGEKPYNCPECGEIFAHSSN [K11N]

>  <protein stability index>
3.52

$$$$
>  <recordSequence>
QRTHTGEKPYKCPECGEIFAHVSN [S22V]

>  <protein stability index>
2.91

$$$$
>  <recordSequence>
QRTHTGEKPYKCPECGEIFYHSSN [A20Y]

>  <protein stability index>
3.49

$$$$
>  <recordSequence>
QRTHTGEKPYKCPECGEIFASSSN [H21S]

>  <protein stability index>
3.43

$$$$
>  <recordSequence>
QRTHTGLKPYKCPECGEIFAHSSN [E7L]

>  <protein stability index>
2.49

$$$$
>  <recordSequence>
QRTHTGEKPRKCPECGEIFAHSSN [Y10R]

>  <protein stability index>
3.79

$$$$
>  <recordSequence>
YRTHTGEKPYKCPECGEIFAHSSN [Q1Y]

>  <protein stability index>
2.57

$$$$
>  <recordSequence>
QRTHTGEKPYKCPECFEIFAHSSN [G16F]

>  <protein stability index>
2.92

$$$$
>  <recordSequence>
QRTHTGEKPYKCPECGEFFAHSSN [I18F]

>  <protein stability index>
2.97

$$$$
>  <recordSequence>
QRTHTGEKPYKCEECGEIFAHSSN [P13E]

>  <protein stability index>
4.69

$$$$
>  <recordSequence>
QRTHTGEKPYKCPEIGEIFAHSSN [C15I]

>  <protein stability index>
4.04

$$$$
>  <recordSequence>
QRTHTGEKPYKCPECGEIFAHKSN [S22K]

>  <protein stability index>
3.16

$$$$
>  <recordSequence>
QRTHTGEKPYKCPECGEIFCHSSN [A20C]

>  <protein stability index>
3.75

$$$$
>  <recordSequence>
QRTHTGEKPYKCPECTEIFAHSSN [G16T]

>  <protein stability index>
3.43

$$$$
>  <recordSequence>
QRTHTGEKPYKCPECGEIFVHSSN [A20V]

>  <protein stability index>
3.04

$$$$
>  <recordSequence>
QRTHTGEKPYKCPECGEIFAHYSN [S22Y]

>  <protein stability index>
2.71

$$$$
>  <recordSequence>
GRTHTGEKPYKCPECGEIFAHSSN [Q1G]

>  <protein stability index>
3.06

$$$$
>  <recordSequence>
QRTHTGEKLYKCPECGEIFAHSSN [P9L]

>  <protein stability index>
3.65

$$$$
>  <recordSequence>
QRTHTGEKPHKCPECGEIFAHSSN [Y10H]

>  <protein stability index>
3.7

$$$$
>  <recordSequence>
QRTHTGEKPYKCPECGEIFARSSN [H21R]

>  <protein stability index>
3.16

$$$$
>  <recordSequence>
QRTHTGEKPYKCPECGEYFAHSSN [I18Y]

>  <protein stability index>
3.48

$$$$
>  <recordSequence>
QRTHTGEKPYKCPNCGEIFAHSSN [E14N]

>  <protein stability index>
4.24

$$$$
>  <recordSequence>
QRTHVGEKPYKCPECGEIFAHSSN [T5V]

>  <protein stability index>
3.06

$$$$
>  <recordSequence>
QRTHTGDKPYKCPECGEIFAHSSN [E7D]

>  <protein stability index>
3.08

$$$$
>  <recordSequence>
QRTHTGEDPYKCPECGEIFAHSSN [K8D]

>  <protein stability index>
3.3

$$$$
>  <recordSequence>
QRVHTGEKPYKCPECGEIFAHSSN [T3V]

>  <protein stability index>
3.04

$$$$
>  <recordSequence>
QRTHTGEKPYKCPECGEIFAHSHN [S23H]

>  <protein stability index>
4.71

$$$$
>  <recordSequence>
QMTHTGEKPYKCPECGEIFAHSSN [R2M]

>  <protein stability index>
2.62

$$$$
>  <recordSequence>
QRTHTGEKPYKCPECGEIFAMSSN [H21M]

>  <protein stability index>
3.19

$$$$
>  <recordSequence>
QRTHTGEKPCKCPECGEIFAHSSN [Y10C]

>  <protein stability index>
4.75

$$$$
>  <recordSequence>
QRTHTGEKPYKCPECGYIFAHSSN [E17Y]

>  <protein stability index>
4.23

$$$$
>  <recordSequence>
QRTVTGEKPYKCPECGEIFAHSSN [H4V]

>  <protein stability index>
2.85

$$$$
>  <recordSequence>
QITHTGEKPYKCPECGEIFAHSSN [R2I]

>  <protein stability index>
3.32

$$$$
>  <recordSequence>
QRTHTGEKPYKCPECGEIFAHHSN [S22H]

>  <protein stability index>
3.87

$$$$
>  <recordSequence>
LRTHTGEKPYKCPECGEIFAHSSN [Q1L]

>  <protein stability index>
2.76

$$$$
>  <recordSequence>
QRTHTQEKPYKCPECGEIFAHSSN [G6Q]

>  <protein stability index>
3.49

$$$$
>  <recordSequence>
QRTHTGNKPYKCPECGEIFAHSSN [E7N]

>  <protein stability index>
2.72

$$$$
>  <recordSequence>
QRTHTGEKPYKCPECGEIFAHSSD [N24D]

>  <protein stability index>
3.88

$$$$
>  <recordSequence>
QRTHTGEKQYKCPECGEIFAHSSN [P9Q]

>  <protein stability index>
3.25

$$$$
>  <recordSequence>
QRTHTGEKPYKCPECGEIFAWSSN [H21W]

>  <protein stability index>
1.95

$$$$
>  <recordSequence>
QRTHTGEKPYKCPECGEIFAHPSN [S22P]

>  <protein stability index>
2.88

$$$$
>  <recordSequence>
QRTHTGEKPYKCPLCGEIFAHSSN [E14L]

>  <protein stability index>
2.34

$$$$
>  <recordSequence>
QRTHTGEKPYKCPEHGEIFAHSSN [C15H]

>  <protein stability index>
4.09

$$$$
>  <recordSequence>
CRTHTGEKPYKCPECGEIFAHSSN [Q1C]

>  <protein stability index>
4.76

$$$$
>  <recordSequence>
QRTHTGEKPYKCPECGEIFAHSEN [S23E]

>  <protein stability index>
4.67

$$$$
>  <recordSequence>
QRTHTGEKPYKCPECGFIFAHSSN [E17F]

>  <protein stability index>
4.53

$$$$
>  <recordSequence>
QRTHTGEKPYKCPECGEIFAHSSA [N24A]

>  <protein stability index>
3.74

$$$$
>  <recordSequence>
QRTHTGEKPYKCPECGEIFAHSIN [S23I]

>  <protein stability index>
3.24

$$$$

# credit: the supplement of paper PMC10567573
